Record form. Attribute: Dissociation amount (RU). Fill in for each entry.
# tested.system: T1, human FSTL1 (construct not stated) (human, UniProt Q12841 21-308)
# T1 construct: also called human FSTL1 antigen; FSTL1 (R&D Systems, Inc. Cat#1694-FN-050)
# T1 sequence: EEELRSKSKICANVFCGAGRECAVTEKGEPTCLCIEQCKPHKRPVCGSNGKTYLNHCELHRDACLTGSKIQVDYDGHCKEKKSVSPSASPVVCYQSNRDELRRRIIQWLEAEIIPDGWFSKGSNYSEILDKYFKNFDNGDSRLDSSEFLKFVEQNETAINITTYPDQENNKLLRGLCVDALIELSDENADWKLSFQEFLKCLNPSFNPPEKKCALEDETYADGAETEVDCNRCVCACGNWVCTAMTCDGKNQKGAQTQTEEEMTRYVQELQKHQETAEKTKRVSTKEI
# method.description: SPR (Biacore T-200), captured antibody, human FSTL1 10 µg/ml; note: time not given here
One number for each entry, in RU.

Some binders with known Dissociation amount (RU) results, for comparison:
INSERT INTO measurements (binder, observed_result) VALUES
  ('anti-FSTL1 antibody clone #8-1 (chicken-mouse chimeric antibody) (antibody, mouse IgG1, kappa, V domains shown) VH: AVTLDESGGGLQTPGGALSLVCKGSGFTFSSFNMFWVRQAPGKGLEWVAGIGKDGVPKYGAAVDGRATISKDNGQSTMRLQLNNLRAEDTGTYFCAKAAGGCSYDWCGIYAGDIDTWGHGTEVIVSS VL: ASTQPSSVSANPGEAVKITCSGGSGSYYGWYQQKSPGSAPVTVIYNNNQRPSDIPSRFSGSKSGSTATLTITGVQAEDEAVYFCGGYDSSSGHGGIFGAGTTLTVLG', 12.3),
  ('anti-FSTL1 antibody clone #33 (chicken-mouse chimeric antibody) (antibody, mouse IgG1, kappa, V domains shown) VH: AVTLDESGGGLQTPGGGLSLVCKASGFTFSSFNMNWVRQAPGKGLEYVAEISGTGSSTYYGSAVKGRATISRDNGQSTVRLQLNNLRAEDTATYFCARGDGAYSIDAWGHGTEVIVSS VL: ASTQPSSVSANPGETVEITCSGDSSYYGWFQQKSPGSAPVTVIYDNTNRPSDIPSRFSGSKSGSTATLTITGVRAEDEAVYYCGGYDSSTYDGIFGAGTTLTVLG', 4.1);

Identify the reported Dissociation amount (RU) for the following entry. anti-FSTL1 antibody clone #5-8 (chicken-mouse chimeric antibody) (antibody, mouse IgG1, kappa, V domains shown) VH: AVTLDESGGGLQTPGGGLSLVCKGSGFTFSSFNMFWVRQAPGKGLEWVAGIGKDGVPKYGTAVDGRATISKDNGQSTMRLQLNNLRAEDTGTYFCAKAAGGCSYDWCGIYTGDIDTWGHGTEVIVSS VL: ASTQPSSVSANPGEAVKITCSGGSGSYYGWYQQKSPGSAPVTVIYNNNQRPSDIPSRFSGSKSGSTATLTITGVQAEDEAVYFCGGYDSSTGHGGIFGAGTTLTVLG
3.4
